target under test: T1, human IL-36α(R12), truncated (human, UniProt Q9UHA7 6-158)
T1 chain: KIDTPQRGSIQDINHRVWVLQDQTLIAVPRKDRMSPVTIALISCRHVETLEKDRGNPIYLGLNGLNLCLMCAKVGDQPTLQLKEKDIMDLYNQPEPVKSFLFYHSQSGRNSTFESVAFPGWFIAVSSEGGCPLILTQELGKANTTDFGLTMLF
assay notes: cell-based or functional assay
readout kind: IC50 of IL-8 secretion, HaCaT, 10 nM human IL-36α, FIG. 1C (nM)

| binder | unit tag | recorded measurement |
| --- | --- | --- |
| 144L180A (antibody, V domains shown) VH: EVQLQQSGAELVKPGASVKLSCTASGFNIKDTYIYWVKQRPEQGLEWIGRIDPANGYTRYDPKFQGKATMTADTSSNTAYLQLSSLTSEDTAVYYCARYEYYDSSFYFDYWGQGTTLTVSS VL: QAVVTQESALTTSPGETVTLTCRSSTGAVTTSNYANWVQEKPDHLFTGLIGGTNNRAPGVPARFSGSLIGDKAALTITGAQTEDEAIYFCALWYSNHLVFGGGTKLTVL | nM | 22.5 |
| 144L124B (antibody, V domains shown, Mouse monoclonal from hybridoma; mouse IgG heavy and lambda light chain; Same VH and VL as 144L180A) VH: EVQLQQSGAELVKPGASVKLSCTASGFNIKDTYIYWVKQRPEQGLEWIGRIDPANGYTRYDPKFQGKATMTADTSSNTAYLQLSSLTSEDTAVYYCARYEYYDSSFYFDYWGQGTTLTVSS VL: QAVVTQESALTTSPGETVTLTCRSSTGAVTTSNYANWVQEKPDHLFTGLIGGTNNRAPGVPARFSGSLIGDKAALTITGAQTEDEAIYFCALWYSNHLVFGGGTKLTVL | nM | 42 |
| 144L249B (antibody, V domains shown, Mouse monoclonal from hybridoma; mouse IgG heavy and lambda light chain; also called mouse antibody 144L249B) VH: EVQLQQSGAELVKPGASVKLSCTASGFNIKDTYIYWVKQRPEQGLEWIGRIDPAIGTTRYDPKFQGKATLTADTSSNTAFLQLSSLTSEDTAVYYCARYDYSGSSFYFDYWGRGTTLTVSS VL: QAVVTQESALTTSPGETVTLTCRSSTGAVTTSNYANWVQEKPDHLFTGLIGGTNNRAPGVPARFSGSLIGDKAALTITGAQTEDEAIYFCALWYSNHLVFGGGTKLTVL | nM | 14.5 |
| chimeric m/h 144D464A (antibody, human IgG1, lambda, V domains shown, Mouse VH/VL joined to human IgG1 constant and human Ig lambda (IGLC2) constant; also called chimeric mouse/human (m/h) 144D464A antibody) VH: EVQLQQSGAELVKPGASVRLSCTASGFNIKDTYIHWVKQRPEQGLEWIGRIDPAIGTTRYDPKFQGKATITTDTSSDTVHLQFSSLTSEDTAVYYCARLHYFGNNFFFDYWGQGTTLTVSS VL: QAVVTQESALTTSPGEAVTLTCRSSSGAVTTSNYANWVQEKPDHLFAGLIGGTNDRAPGVPARFSGSLIGDKAALTITGAQTEDEAIYFCALWFSNHWVFGGGTKLTVLG | nM | 7.77 |
